Cited source: patent US20190321401A1

# SUBJECT_OF_TEST: T1, HPV16 E7(11-19)-peptide-MHC tetramer complex (human papillomavirus 16 (HPV16); human)
# T1 construct: also called E7(11-19)-specific tetramer; MHC/E7(11-19) peptide tetramer
# TEST_PROTOCOL: flow cytometry, peptide-MHC tetramer staining of TCR-transduced primary human T cells;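 further: normal donor T cells activated with anti-CD3/anti-CD28, then lentivirally transduced with TCRs, with mock-transduced cells as control, co-stained for the transduction marker and CD8, tetramers presented by HLA-A02:01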
For each record, check the reported % of CD8+ cells positive for E7(11-19) tetramer staining: if it is below 20% write True, else write False.

TCR 57 (mouse constant regions) (TCR, V domains shown) V domain 1: TQLLEQSPQFLSIQEGENLTVYCNSSSVFSSLQWYRQEPGEGPVLLVTVVTGGEVKKLKRLTFQFGDARKDSSLHITAAQPGDTGLYLCAGARNFNKFYFGSGTKLNVKP V domain 2: GAVVSQHPSWVICKSGTSVKIECRSLDFQATTMFWYRQFPKQSLMLMATSNEGSKATYEQGVEKDKFLINHASLTLSTLTVTSAHPEDSSFYICSARSWRGGLEQFFGPGTRLTVLE: False
TCR 61 (mouse constant regions) (TCR, V domains shown) V domain 1: QKEVEQNSGPLSVPEGAIASLNCTYSDRGSQSFFWYRQYSGKSPELIMFIYSNGDKEDGRFTAQLNKASQYVSLLIRDSQPSDSATYLCAVNIENNNARLMFGDGTQLVVKP V domain 2: EPEVTQTPSHQVTQMGQEVILRCVPISNHLYFYWYRQILGQKVEFLVSFYNNEISEKSEIFDDQFSVERPDGSNFTLKIRSTKLEDSAMYFCASTKRFSYEQYFGPGTRLTVTE: True
TCR 59 (mouse constant regions) (TCR, V domains shown) V domain 1: GQQVMQIPQYQHVQEGEDFTTYCNSSTTLSNIQWYKQRPGGHPVFLIQLVKSGEVKKQKRLTFQFGEAKKNSSLHITATQTTDVGTYFCAPKREYGNKLVFGAGTILRVKS V domain 2: EPEVTQTPSHQVTQMGQEVILRCVPISNHLYFYWYRQILGQKVEFLVSFYNNEISEKSEIFDDQFSVERPDGSNFTLKIRSTKLEDSAMYFCAYSGRASYEQYFGPGTRLTVTE: False
TCR 64 (mouse constant regions) (TCR, V domains shown) V domain 1: AQKVTQAQTEISVVEKEDVTLDCVYETRDTTYYLFWYKQPPSGELVFLIRRNSFDEQNEISGRYSWNFQKSTSSFNFTITASQVVDSAVYFCALSGVDNYGQNFVFGPGTRLSVLP V domain 2: DTAVSQTPKYLVTQMGNDKSIKCEQNLGHDTMYWYKQDSKKFLKIMFSYNNKELIINETVPNRFSPKSPDKAHLNLHINSLELGDSAVYFCASSQGEAGANVLTFGAGSRLTVLE: True
TCR 65 (mouse constant regions) (TCR, V domains shown) V domain 1: EDQVTQSPEALRLQEGESSSLNCSYTVSGLRGLFWYRQDPGKGPEFLFTLYSAGEEKEKERLKATLTKKESFLHITAPKPEDSATYLCAVQAERGSTLGRLYFGRGTQLTVWP V domain 2: DVKVTQSSRYLVKRTGEKVFLECVQDMDHENMFWYRQDPGLGLRLIYFSYDVKMKEKGDIPEGYSVSREKKERFSLILESASTNQTSMYLCASSLWGRRNTGELFFGEGSRLTVLE: True

Asked: Here's an entry: TCR 60 (mouse constant regions) (TCR, V domains shown) V domain 1: QKEVEQNSGPLSVPEGAIASLNCTYSDRGSQSFFWYRQYSGKSPELIMFIYSNGDKEDGRFTAQLNKASQYVSLLIRDSQPSDSATYLCAVNMLGSGGSNYKLTFGKGTLLTVNP V domain 2: EPEVTQTPSHQVTQMGQEVILRCVPISNHLYFYWYRQILGQKVEFLVSFYNNEISEKSEIFDDQFSVERPDGSNFTLKIRSTKLEDSAMYFCAISRTVSYEQYFGPGTRLTVTE . Is its % of CD8+ cells positive for E7(11-19) tetramer staining below 20%?
Given back: False

Asked: Would you kindly verify if % of CD8+ cells positive for E7(11-19) tetramer staining of TCR 58 (mouse constant regions) (TCR, V domains shown) V domain 1: RKEVEQDPGPFNVPEGATVAFNCTYSNSASQSFFWYRQDCRKEPKLLMSVYSSGNEDGRFTAQLNRASQYISLLIRDSKLSDSATYLCVVNRDNYGQNFVFGPGTRLSVLP V domain 2: EPEVTQTPSHQVTQMGQEVILRCVPISNHLYFYWYRQILGQKVEFLVSFYNNEISEKSEIFDDQFSVERPDGSNFTLKIRSTKLEDSAMYFCASTPRSSYEQYFGPGTRLTVTE is strictly less than 20%?
Given back: True

Asked: Report whether reported % of CD8+ cells positive for E7(11-19) tetramer staining is lower than 20% (strictly) for TCR 62 (mouse constant regions) (TCR, V domains shown) V domain 1: AQTVTQSQPEMSVQEAETVTLSCTYDTSENNYYLFWYKQPPSRQMILVIRQEAYKQQNATENRFSVNFQKAAKSFSLKISDSQLGDTAMYFCALYTYKYIFGTGTRLKVLA V domain 2: EAGVAQSPRYKIIEKRQSVAFWCNPISGHATLYWYQQILGQGPKLLIQFQNNGVVDDSQLPKDRFSAERLKGVDSTLKIQPAKLEDSAVYLCASSLDTRGSSYNEQFFGPGTRLTVLE
Given back: False

Asked: Is it true that % of CD8+ cells positive for E7(11-19) tetramer staining reported for TCR 56 (mouse constant regions) (TCR, V domains shown, Human variable regions on mouse constant regions with added cysteines (Calpha Thr48Cys, Cbeta Ser57Cys); Entries are the full chains without signal peptide) V domain 1: GQNIDQPTEMTATEGAIVQINCTYQTSGFNGLFWYQQHAGEAPTFLSYNVLDGLEEKGRFSSFLSRSKGYSYLLLKELQMKDSASYLCAVRDWGYGGATNKLIFGTGTLLAVQP V domain 2: NAGVMQNPRHLVRRRGQEARLRCSPMKGHSHVYWYRQLPEEGLKFMVYLQKENIIDESGMPKERFSAEFPKEGPSILRIQQVVRGDSAAYFCASSPDESRDSNQPQHFGDGTRLSILE is less than 20%?
Given back: True

Asked: Please indicate whether the reported % of CD8+ cells positive for E7(11-19) tetramer staining of TCR 63 (mouse constant regions) (TCR, V domains shown) V domain 1: SQELEQSPQSLIVQEGKNLTINCTSSKTLYGLYWYKQKYGEGLIFLMMLQKGGEEKSHEKITAKLDEKKQQSSLHITASQPSHAGIYLCGADIDDYKLSFGAGTTVTVRA V domain 2: GAGVSQSPRYKVAKRGQDVALRCDPISGHVSLFWYQQALGQGPEFLTYFQNEAQLDKSGLPSDRFFAERPEGSVSTLKIQRTQQEDSAVYLCASRPRQGYNDNEQFFGPGTRLTVLE is strictly below 20%.
Given back: True
